target: human Pgp (Homo sapiens); conditions: fitted parameter±standard error, GraphPad Prism; R123 efflux, MDCKII-MDR1
Sequence (P08183 whole entry): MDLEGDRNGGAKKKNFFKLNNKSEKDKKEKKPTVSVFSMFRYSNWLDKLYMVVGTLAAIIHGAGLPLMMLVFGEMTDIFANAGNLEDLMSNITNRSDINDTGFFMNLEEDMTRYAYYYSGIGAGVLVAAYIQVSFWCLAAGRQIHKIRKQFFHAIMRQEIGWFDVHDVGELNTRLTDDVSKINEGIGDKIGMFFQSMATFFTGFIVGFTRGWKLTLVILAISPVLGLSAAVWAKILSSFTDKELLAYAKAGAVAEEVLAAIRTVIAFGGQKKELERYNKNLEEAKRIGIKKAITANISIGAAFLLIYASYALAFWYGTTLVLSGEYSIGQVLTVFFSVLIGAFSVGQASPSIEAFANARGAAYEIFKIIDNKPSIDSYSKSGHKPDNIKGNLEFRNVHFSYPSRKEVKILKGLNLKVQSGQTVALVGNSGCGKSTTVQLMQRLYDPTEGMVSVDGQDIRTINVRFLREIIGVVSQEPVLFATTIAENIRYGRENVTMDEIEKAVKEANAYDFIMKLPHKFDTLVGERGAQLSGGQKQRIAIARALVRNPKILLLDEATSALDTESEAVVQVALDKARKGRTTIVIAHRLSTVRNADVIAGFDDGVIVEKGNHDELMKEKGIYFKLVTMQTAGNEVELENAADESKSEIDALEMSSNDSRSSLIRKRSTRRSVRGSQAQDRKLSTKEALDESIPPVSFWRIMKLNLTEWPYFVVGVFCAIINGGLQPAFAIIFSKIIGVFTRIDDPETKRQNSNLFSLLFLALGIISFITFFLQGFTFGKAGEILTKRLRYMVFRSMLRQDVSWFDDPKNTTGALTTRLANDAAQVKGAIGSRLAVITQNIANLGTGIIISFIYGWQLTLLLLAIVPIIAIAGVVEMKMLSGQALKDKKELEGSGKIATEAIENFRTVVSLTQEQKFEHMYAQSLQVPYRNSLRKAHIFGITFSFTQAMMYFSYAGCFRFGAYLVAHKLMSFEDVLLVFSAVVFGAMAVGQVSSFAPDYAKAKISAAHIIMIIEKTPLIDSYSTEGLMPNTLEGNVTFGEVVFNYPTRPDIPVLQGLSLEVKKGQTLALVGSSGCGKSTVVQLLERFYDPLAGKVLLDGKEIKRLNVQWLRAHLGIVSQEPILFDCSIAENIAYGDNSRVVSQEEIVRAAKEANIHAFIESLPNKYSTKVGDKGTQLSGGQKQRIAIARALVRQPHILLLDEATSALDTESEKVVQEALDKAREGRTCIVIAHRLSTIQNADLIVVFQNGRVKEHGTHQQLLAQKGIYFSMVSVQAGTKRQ
Examples of molecules with documented logIC50 follow.
Simply state the number, no unit and no words.

1. COc1cc2c(cc1OC)CN(CCc1ccc(NC(=O)c3ccc(Cl)c4c(=O)c5cccc(OC)c5[nH]c34)cc1)CC2 [4a]: 0.58

Note: attention shifts to another entry.
# logIC50 lookup, item COc1cc2c(cc1OC)CN(CCc1ccc(NC(=O)c3cc(Cl)cc4c(=O)c5cccc(OC)c5[nH]c34)cc1)CC2 [4d]
0.14

* * *

biological target: human Pgp (Homo sapiens); settings: fitted parameter±standard error, GraphPad Prism; R123 efflux, MDCKII-MDR1
measure: logIC50
Simply state the number, no unit and no words.

Recorded results for 2 molecules are shown here.
1) COc1cc2c(cc1OC)CN(CCc1ccc(NC(=O)c3cc(F)cc4c(=O)c5cccc(OC)c5[nH]c34)cc1)CC2: −0.21
2) COc1cc2c(cc1OC)CN(CCc1ccc(NC(=O)c3ccc([N+](=O)[O-])c4c(=O)c5cccc(OC)c5[nH]c34)cc1)CC2: 0.21

Note: attention shifts to another entry.
# logIC50 lookup, item COc1cc2c(cc1OC)CN(CCc1ccc(NC(=O)c3ccc(F)c4c(=O)c5cccc(OC)c5[nH]c34)cc1)CC2
0.24
